assay: Cmax in rat at 5 mg/kg, po measured upto 24 hrs by LC-MS/MS analysis; type: ADME, organism-based; details: in vivo
EXPERIMENTAL_ENDPOINT: Cmax (ng/mL)
Quick note: give the figure in ng/mL, leave out the unit.

### Prompt Please report Cmax for the following compound: Cc1c(Br)c(Br)c2c3c1nc(N1CCNCC1)n3CCC2 [SEL-120 FREE BASE]
### Response 12

====

assay: Half-life in dog at 1 mg/kg, iv measured upto 24 hrs by LC-MS/MS anlaysis; assay type: ADME, organism-based, Canis lupus familiaris; conditions: in vivo
Each record here notes measured half-life.
Quick note: give the figure in h, leave out the unit.

Cc1c(Br)c(Br)c2c3c1nc(N1CCNCC1)n3CCC2 [SEL-120 FREE BASE] = 2.7

Now consider the entry below.
### Prompt Please report half-life for the following compound: `FC(F)c1c(Br)c(Br)cc2c1nc(N1CCNCC1)n2C1CCOCC1`
### Response 4.75
